test system: P12-Ichikawa; assay: cell viability relative to DMSO control; higher = less cytotoxic; details: HPLM + 10% dialyzed FBS; 48 h; 0.19 µM
metric: cell viability (%)
Number only, in %; omit the unit.

Observe how each entry below is paired with its result.
Cc1cccc(Nc2nc(N[C@@H]3CCCC[C@@H]3N)ncc2C(N)=O)c1 : 116
O=C(O)C(=O)Nc1cccc(-c2nnn[nH]2)c1 : 106
Cc1n[nH]c(C)c1Cc1sc2c(c1C(=O)N1C[C@H](O)CO1)c(=O)n(C)c(=O)n2CC(C)C : 98.8
O=C(O)c1nn(Cc2ccc(Cl)cc2Cl)c2ccccc12 : 84
O=C(N[C@H]1CN2CCC1CC2)c1ccc(Cl)cc1 : 116

Short answer for `Cc1cc(-c2ccc(CC(=O)Nc3ccc(-c4cccnc4)cc3)cc2)ccn1` : cell viability was 111
